TGT: HDAC3 (Homo sapiens, UniProt O15379)
Construct: purchased Reaction Biology Corporation (assay run by the CRO)
Sequence (O15379 whole entry): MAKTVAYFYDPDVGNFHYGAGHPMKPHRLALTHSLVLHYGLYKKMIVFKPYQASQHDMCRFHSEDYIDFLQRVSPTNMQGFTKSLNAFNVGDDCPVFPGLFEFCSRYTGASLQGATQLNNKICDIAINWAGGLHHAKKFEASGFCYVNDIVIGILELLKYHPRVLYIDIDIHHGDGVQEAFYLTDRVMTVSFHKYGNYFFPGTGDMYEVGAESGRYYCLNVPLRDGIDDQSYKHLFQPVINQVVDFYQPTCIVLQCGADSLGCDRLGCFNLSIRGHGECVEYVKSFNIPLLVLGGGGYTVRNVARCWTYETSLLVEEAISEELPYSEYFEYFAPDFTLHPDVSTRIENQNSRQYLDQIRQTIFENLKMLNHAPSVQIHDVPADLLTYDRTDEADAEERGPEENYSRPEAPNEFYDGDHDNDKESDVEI
Sequence (Q9Y618 395-489 partner limits assumed): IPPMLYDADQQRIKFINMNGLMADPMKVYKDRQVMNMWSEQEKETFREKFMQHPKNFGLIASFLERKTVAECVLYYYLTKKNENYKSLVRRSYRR
EXPERIMENT: HDAC3 inhibition, full IC50 measurement (Reaction Biology; fluorogenic p53 peptide RHKK(Ac)AMC)
Format: biochemical
STATED CONDITIONS: Conc. 4.57E-09 M, t1
Peptide text beside a SMILES is read from it.
PARAMETER: HDAC3 activity raw data (signal)
Reply with the value as a number alone.

COMPOUND	HDAC3 activity raw data (signal)
N=C(N)NCCC[C@@H]1NC(=O)[C@H](Cc2c[nH]c3ccccc23)NC(=O)[C@H](CC(=O)O)NC(=O)[C@@H](CO)NC(=O)[C@H](Cc2c[nH]c3ccccc23)NC(=O)[C@H](CCCCCS)NC(=O)[C@H](CCC(N)=O)NC1=O [des4.1.0, SHA-Trp-dSer-Asp-Trp-Arg-Gln] (HELM PEPTIDE1{D.W.R.Q.[O=C([C@H](CCCCCS)N[*:1])[*:2]].W.[dS]}$PEPTIDE1,PEPTIDE1,1:R1-7:R2$$$V2.0)	1007447

Requested read-out: HDAC3 activity raw data (signal). Entry: N=C(N)NCCC[C@@H]1NC(=O)[C@@H](CCCNC(=N)N)NC(=O)[C@H]2CCCN2C(=O)[C@@H](Cc2c[nH]cn2)NC(=O)[C@H](Cc2ccc(O)cc2)NC(=O)[C@H](CCCCCS)NC(=O)[C@H](CCc2ccccc2)NC(=O)[C@@H](CO)NC(=O)[C@H](CC(=O)O)NC1=O [des3.3.1, SHA-Tyr-dHis-dPro-dArg-Arg-Asp-dSer-C27] (HELM PEPTIDE1{[O=C([C@H](CCCCCS)N[*:1])[*:2]].Y.[dH].[dP].[dR].R.D.[dS].[O=C([C@H](CCc1ccccc1)N[*:1])[*:2]]}$PEPTIDE1,PEPTIDE1,1:R1-9:R2$$$V2.0)
114353

---

TGT: HDAC6 (Homo sapiens, UniProt Q9UBN7)
Construct: purchased Reaction Biology Corporation (assay run by the CRO)
Sequence (Q9UBN7 whole entry): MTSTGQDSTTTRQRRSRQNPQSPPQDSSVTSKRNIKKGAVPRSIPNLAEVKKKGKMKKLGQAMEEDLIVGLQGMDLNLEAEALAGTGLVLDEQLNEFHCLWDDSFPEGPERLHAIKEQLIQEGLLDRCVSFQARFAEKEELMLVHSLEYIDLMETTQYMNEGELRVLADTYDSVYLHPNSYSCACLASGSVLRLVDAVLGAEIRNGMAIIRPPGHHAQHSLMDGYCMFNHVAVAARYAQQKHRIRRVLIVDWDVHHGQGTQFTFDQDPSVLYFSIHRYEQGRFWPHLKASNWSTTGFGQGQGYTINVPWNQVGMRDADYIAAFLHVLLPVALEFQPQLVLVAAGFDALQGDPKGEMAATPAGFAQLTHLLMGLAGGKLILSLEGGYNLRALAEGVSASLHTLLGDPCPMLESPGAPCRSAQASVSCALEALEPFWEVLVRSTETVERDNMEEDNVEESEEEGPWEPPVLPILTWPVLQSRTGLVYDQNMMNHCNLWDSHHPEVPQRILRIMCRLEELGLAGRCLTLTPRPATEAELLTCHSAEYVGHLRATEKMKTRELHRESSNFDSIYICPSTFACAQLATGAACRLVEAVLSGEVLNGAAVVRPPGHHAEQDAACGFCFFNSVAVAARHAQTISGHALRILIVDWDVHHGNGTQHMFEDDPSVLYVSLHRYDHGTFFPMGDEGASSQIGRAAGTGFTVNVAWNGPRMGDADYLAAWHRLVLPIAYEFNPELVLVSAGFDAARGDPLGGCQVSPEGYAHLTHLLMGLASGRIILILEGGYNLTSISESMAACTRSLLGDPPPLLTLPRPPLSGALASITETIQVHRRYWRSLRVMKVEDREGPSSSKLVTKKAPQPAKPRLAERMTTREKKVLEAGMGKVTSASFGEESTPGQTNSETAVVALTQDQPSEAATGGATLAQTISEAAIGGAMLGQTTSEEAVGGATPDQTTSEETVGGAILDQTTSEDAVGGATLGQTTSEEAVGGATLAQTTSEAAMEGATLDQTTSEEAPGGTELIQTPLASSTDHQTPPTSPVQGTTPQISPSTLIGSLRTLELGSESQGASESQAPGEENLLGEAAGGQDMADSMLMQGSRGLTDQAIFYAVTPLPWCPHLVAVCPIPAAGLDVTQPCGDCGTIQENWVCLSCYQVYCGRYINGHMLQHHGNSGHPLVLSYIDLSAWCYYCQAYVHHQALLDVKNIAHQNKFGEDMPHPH
EXPERIMENT: HDAC6 inhibition, full IC50 measurement (Reaction Biology; fluorogenic p53 peptide RHKK(Ac)AMC)
Assay type: biochemical
STATED CONDITIONS: Conc. 1.23E-07 M, t2
Peptide text beside a SMILES is read from it.
PARAMETER: HDAC6 activity raw data (signal)
Reply with the value as a number alone.

Requested read-out: HDAC6 activity raw data (signal). Entry: CC(C)C[C@H]1NC(=O)[C@H](Cc2c[nH]c3ccccc23)NC(=O)[C@H](CCCCCS)NC(=O)[C@@H](Cc2ccc(O)cc2)NC(=O)[C@@H](C(C)C)NC(=O)[C@H](Cc2c[nH]cn2)NC(=O)CNC(=O)CNC(=O)[C@@H](CO)NC1=O [des2.2.0, SHA-Trp-dLeu-dSer-Gly-Gly-His-dVal-dTyr] (HELM PEPTIDE1{G.G.H.[dV].[dY].[O=C([C@H](CCCCCS)N[*:1])[*:2]].W.[dL].[dS]}$PEPTIDE1,PEPTIDE1,1:R1-9:R2$$$V2.0)
161069

---

TGT: HDAC3 (Homo sapiens, UniProt O15379)
Construct: purchased Reaction Biology Corporation (assay run by the CRO)
EXPERIMENT: HDAC3 inhibition, full IC50 measurement (Reaction Biology; fluorogenic p53 peptide RHKK(Ac)AMC)
Type: biochemical
STATED CONDITIONS: Conc. 1.23E-07 M, t1
Peptide text beside a SMILES is read from it.
Recorded measurements of HDAC3 activity raw data (signal), one per entry
Reply with the value as a number alone.

MOLECULE	PARAMETER	REPORTED MEASUREMENT
NCCCC[C@@H]1NC(=O)[C@@H]2CCCN2C(=O)[C@H](CC(N)=O)NC(=O)[C@H](CCCCCS)NC(=O)CNC(=O)[C@H](Cc2c[nH]c3ccccc23)NC(=O)[C@@H](CCCCN)NC(=O)[C@H](CCC(N)=O)NC1=O [des1.1.0, SHA-Asn-Pro-Lys-Gln-dLys-Trp-Gly] (HELM PEPTIDE1{G.[O=C([C@H](CCCCCS)N[*:1])[*:2]].N.P.K.Q.[dK].W}$PEPTIDE1,PEPTIDE1,1:R1-8:R2$$$V2.0)	HDAC3 activity raw data (signal)	406610

Now examine the next entry.
Requested read-out: HDAC3 activity raw data (signal). Entry: N=C(N)NCCC[C@@H]1NC(=O)[C@@H](CCCNC(=N)N)NC(=O)[C@H]2CCCN2C(=O)[C@@H](Cc2c[nH]cn2)NC(=O)[C@H](Cc2ccc(O)cc2)NC(=O)[C@H](CCCCCS)NC(=O)[C@H](CCc2ccccc2)NC(=O)[C@@H](CO)NC(=O)[C@H](CC(=O)O)NC1=O [des3.3.1, SHA-Tyr-dHis-dPro-dArg-Arg-Asp-dSer-C27] (HELM PEPTIDE1{[O=C([C@H](CCCCCS)N[*:1])[*:2]].Y.[dH].[dP].[dR].R.D.[dS].[O=C([C@H](CCc1ccccc1)N[*:1])[*:2]]}$PEPTIDE1,PEPTIDE1,1:R1-9:R2$$$V2.0)
21751

---

TGT: HDAC2 (Homo sapiens, UniProt Q92769)
Construct: purchased Reaction Biology Corporation (assay run by the CRO)
Sequence (Q92769 whole entry): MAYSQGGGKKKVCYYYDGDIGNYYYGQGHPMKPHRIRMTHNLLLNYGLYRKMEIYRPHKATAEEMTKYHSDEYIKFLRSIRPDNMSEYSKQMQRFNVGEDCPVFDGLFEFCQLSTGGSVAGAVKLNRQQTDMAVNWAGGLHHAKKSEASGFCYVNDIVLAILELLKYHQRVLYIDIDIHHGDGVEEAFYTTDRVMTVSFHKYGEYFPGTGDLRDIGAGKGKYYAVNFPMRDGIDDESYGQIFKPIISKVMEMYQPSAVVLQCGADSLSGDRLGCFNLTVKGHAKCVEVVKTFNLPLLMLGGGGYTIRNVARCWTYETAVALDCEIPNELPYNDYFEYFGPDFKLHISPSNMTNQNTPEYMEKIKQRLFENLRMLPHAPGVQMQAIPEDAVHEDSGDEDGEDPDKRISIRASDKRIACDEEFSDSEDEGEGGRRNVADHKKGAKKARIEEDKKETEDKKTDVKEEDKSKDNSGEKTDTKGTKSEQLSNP
EXPERIMENT: HDAC2 inhibition, full IC50 measurement (Reaction Biology; fluorogenic p53 peptide RHKK(Ac)AMC)
Assay type: biochemical
STATED CONDITIONS: Conc. 4.57E-09 M, t1
Peptide text beside a SMILES is read from it.
PARAMETER: HDAC2 activity raw data (signal)
Reply with the value as a number alone.

Below are worked cases with known answers.
COMPOUND	HDAC2 activity raw data (signal)
NCCCC[C@@H]1NC(=O)[C@@H]2C[C@@H](O)CN2C(=O)[C@H](CC(N)=O)NC(=O)[C@H](CCCCCS)NC(=O)CNC(=O)[C@H](Cc2c[nH]c3ccccc23)NC(=O)[C@@H](CCCCN)NC(=O)[C@H](CCC(N)=O)NC1=O [des1.1.2, SHA-Asn-Hpr-Lys-Gln-dLys-Trp-Gly] (HELM PEPTIDE1{G.[O=C([C@H](CCCCCS)N[*:1])[*:2]].N.[Hyp].K.Q.[dK].W}$PEPTIDE1,PEPTIDE1,1:R1-8:R2$$$V2.0)	1082856
CSCC[C@H]1NC(=O)[C@@H](CO)NC(=O)[C@H](CC(N)=O)NC(=O)[C@H](CC(=O)O)NC(=O)[C@@H]([C@H](C)O)NC(=O)[C@H](Cc2c[nH]c3ccccc23)NC(=O)[C@H](CCCCCS)NC(=O)[C@H](CCCCN)NC(=O)[C@@H](CC(=O)O)NC1=O [des2.1.1, SHA-Trp-dThr-Asp-Asn-dSer-dMet-dAsp-Lys] (HELM PEPTIDE1{D.N.[dS].[dM].[dD].K.[O=C([C@H](CCCCCS)N[*:1])[*:2]].W.[dT]}$PEPTIDE1,PEPTIDE1,1:R1-9:R2$$$V2.0)	827090
CCCC[C@H]1NC(=O)[C@H](CC(=O)O)NC(=O)[C@@H](CO)NC(=O)[C@@H](C)NC(=O)[C@H](CCCCN)NC(=O)[C@@H](CCCCN)NC(=O)[C@H](Cc2ccccc2)NC(=O)[C@H](CCCCCS)NC1=O [des4.3.1.2, SHA-Phe-dLys-Lys-dAla-dSer-Asp-dNle] (HELM PEPTIDE1{D.[CCCC[C@@H](N[*:1])C(=O)[*:2]].[O=C([C@H](CCCCCS)N[*:1])[*:2]].F.[dK].K.[dA].[dS]}$PEPTIDE1,PEPTIDE1,1:R1-8:R2$$$V2.0)	1828637
NCCCC[C@H]1NC(=O)[C@H](CCC(N)=O)NC(=O)[C@H](CCC(=O)O)NC(=O)[C@@H]2CCCN2C(=O)[C@H](CC(N)=O)NC(=O)[C@H](CCCCCS)NC(=O)CNC(=O)[C@H](Cc2c[nH]c3ccccc23)NC1=O [des1.1.1, SHA-Asn-Pro-Glu-Gln-dLys-Trp-Gly] (HELM PEPTIDE1{E.Q.[dK].W.G.[O=C([C@H](CCCCCS)N[*:1])[*:2]].N.P}$PEPTIDE1,PEPTIDE1,1:R1-8:R2$$$V2.0)	833526
CCCC[C@H]1NC(=O)[C@H](Cc2ccccc2)NC(=O)[C@H](CCCCCS)NC(=O)[C@@H](CCCNC(=N)N)NC(=O)[C@H](C)NC(=O)[C@@H](CO)NC(=O)[C@@H](C)NC(=O)[C@H](CCCCN)NC1=O [des4.3.1.3, SHA-Phe-dNle-Lys-dAla-dSer-Ala-dArg] (HELM PEPTIDE1{A.[dR].[O=C([C@H](CCCCCS)N[*:1])[*:2]].F.[CCCC[C@@H](N[*:1])C(=O)[*:2]].K.[dA].[dS]}$PEPTIDE1,PEPTIDE1,1:R1-8:R2$$$V2.0)	1706591

Fill in the recorded HDAC2 activity raw data (signal) for this compound, with HDAC2 (Homo sapiens, UniProt Q92769) as test system: NCCCC[C@@H]1NC(=O)[C@@H]2CCCN2C(=O)[C@H](CC(N)=O)NC(=O)[C@H](CCCCCS)NC(=O)CNC(=O)[C@H](Cc2c[nH]c3ccccc23)NC(=O)[C@@H](CCCCN)NC(=O)[C@H](CCC(N)=O)NC1=O [des1.1.0, SHA-Asn-Pro-Lys-Gln-dLys-Trp-Gly] (HELM PEPTIDE1{G.[O=C([C@H](CCCCCS)N[*:1])[*:2]].N.P.K.Q.[dK].W}$PEPTIDE1,PEPTIDE1,1:R1-8:R2$$$V2.0)
1010930

Fill in the recorded HDAC2 activity raw data (signal) for this compound, with HDAC2 (Homo sapiens, UniProt Q92769) as test system: C[C@H](O)[C@H]1NC(=O)[C@H](Cc2c[nH]c3ccccc23)NC(=O)[C@H](CCCCCS)NC(=O)[C@H](CCCCN)NC(=O)[C@@H](CC(=O)O)NC(=O)[C@@H](CCCCN)NC(=O)[C@@H](CO)NC(=O)[C@H](CC(N)=O)NC(=O)[C@H](CC(=O)O)NC1=O [des2.1.0, SHA-Trp-dThr-Asp-Asn-dSer-dLys-dAsp-Lys] (HELM PEPTIDE1{D.N.[dS].[dK].[dD].K.[O=C([C@H](CCCCCS)N[*:1])[*:2]].W.[dT]}$PEPTIDE1,PEPTIDE1,1:R1-9:R2$$$V2.0)
870100
